Experiment: Pharmacokinetic evaluation in plasma
Format: in vivo, C57BL/6 mice
Conditions: female, C57BL/6, mouse, plasma, ip, 500 mg/kg, C57BL/6 mice, single i.p. dose 500 mg/kg, plasma; read-out: K10 elimination half life (converted)
The entries below are paired with their reported half-life.
The response must be a number in min with no trailing unit.

{"compound": "N[C@@H](CNC(=O)N[C@@H](CS)C(=O)NCC(=O)O)C(=O)O [Ψ-GSH, γ-Gla-Cys-Gly-OH]", "quantityUnit": "min", "half-life": 73.6}

Now look at this entry.
Incoming: Bench note: what half-life did N[C@@H](CCC(=O)N[C@@H](CS)C(=O)NCC(=O)O)C(=O)O [GSH, Glutathione] show?
Outgoing: 29.7

* * *

Assay: Pharmacokinetic evaluation in plasma
Type: in vivo, C57BL/6 mice
Details: female, mouse, ip; C57BL/6 mice, single i.p. dose 500 mg/kg, plasma
# Cmax per record follows
Write down the numeric answer in µg/mL and omit the unit.

{"molecule": "N[C@@H](CNC(=O)N[C@@H](CS)C(=O)NCC(=O)O)C(=O)O [Ψ-GSH, γ-Gla-Cys-Gly-OH]", "Cmax [µg/mL]": 110}

Here is another molecule to look at.
Incoming: Cmax lookup needed for N[C@@H](CCC(=O)N[C@@H](CS)C(=O)NCC(=O)O)C(=O)O [GSH, Glutathione] , thanks.
Outgoing: 43.9

* * *

Assay: Pharmacokinetic evaluation in plasma
Assay type: in vivo, C57BL/6 mice
Conditions: female, mouse, ip; C57BL/6 mice, single i.p. dose 500 mg/kg, plasma
readoutType: AUC (µg·h/mL)
I only need the number, in µg·h/mL, no unit after it.

Incoming: Which AUC is listed for N[C@@H](CCC(=O)N[C@@H](CS)C(=O)NCC(=O)O)C(=O)O ?
Outgoing: 50.2

Incoming: Param item: N[C@@H](CNC(=O)N[C@@H](CS)C(=O)NCC(=O)O)C(=O)O
Outgoing: 267

* * *

System: SH-SY-5Y cells
Experiment: cells
Format: cell-based
Conditions: SH-SY-5Y, compound 1 mM 24 h, without Aβ1-42
Reported % Inhibition of Cell Growth without Aβ1-42 by item:
API: value field is a number in %; no unit string.

Below, each entry is followed by its recorded % Inhibition of Cell Growth without Aβ1-42 result.
{"substance": "Boc-γ-Gla-Cys-Gly-OH [Compound V]", "quantityUnit": "%", "val": 1}
{"substance": "γ-Glo-Cys-Gly-OH [II]", "quantityUnit": "%", "val": 1}
{"substance": "[γ-Gla-Cys-Gly-OH]2 [Compound XI]", "quantityUnit": "%", "val": 1}
{"substance": "γ-Glt-Cys-Gly-OH [III]", "quantityUnit": "%", "val": 2}

With those in mind, consider the next substance.
Incoming: Please look up its % Inhibition of Cell Growth without Aβ1-42: N-acetyl-γ-Gla-Cys-Gly-OH [IV]
Outgoing: 0

Data origin: patent US9394338B2
